{"Compound": "COCCN1C(=O)CCCc2cc(N)ccc21", "melting point": "134 to 135 °C"}
{"Compound": "Nc1ccccc1/C=C/c1ncon1", "melting point": "108 to 109 °C"}
{"Compound": "COc1ccc(Nc2cccc3c2C(=O)N(C2CCC(=O)NC2=O)C3=O)cc1O (stereo not given)", "melting point": "225 to 227 °C"}
{"Compound": "CCN(CC)CC(O)CNC(=O)c1c(OC)c2ccccc2n1-c1ccccc1 (stereo not given)", "melting point": "148 to 150 °C"}
{"Compound": "CN(C)Cc1nnc2n1-c1ccc(Cl)cc1C(c1ccccc1)=NC2", "melting point": "168 to 171 °C"}
{"Compound": "Cc1cc(O)n2nc(S(=O)(=O)O)nc2n1", "melting point": "> 300 °C"}
{"Compound": "c1cc2c3c(c1)[C@H]1CCC[C@H]1N3CCNCC2 (relative stereo)", "melting point": "> 130 °C"}
{"Compound": "CC(=O)c1cc(N=c2cc(C)n(C)c(N)n2)cc(C(C)=O)c1", "melting point": "219 to 220 °C"}
{"Compound": "COc1ccc(Cl)cc1NC(=O)NCc1ccc2c(c1)CN(C1CCC(=O)NC1=O)C2=O (stereo not given)", "melting point": "283 to 285 °C"}
{"Compound": "Cc1ccc(C(=O)Nc2ccc(N3CCNCC3)cc2)c(-c2ccc(C(C)C)cc2)c1", "melting point": "131 to 133 °C"}

###

Measured Attribute: melting point

{"Molecule": "COC(=O)C(C)(N)Cc1csc2ccccc12 (stereo unspecified)", "Result": "44 to 45 °C"}
{"Molecule": "COc1cccc2c(Nc3ccc(C(=O)NC4CCN(Cc5ccccc5)CC4)cc3)c(C(=O)NC3CCN(CCc4ccccc4)CC3)cnc12", "Result": "216 to 220 °C"}
{"Molecule": "COC(=O)C1(C)CCN(c2cccc(-c3cnc4[nH]cc(C(=O)C(C)(C)C)c4n3)c2)C1 (stereo unspecified)", "Result": "198 to 200 °C"}
{"Molecule": "N#Cc1ccc(N(CCOc2ccc(OCc3ccccc3)cc2)n2cnnc2)cc1", "Result": "160 to 162 °C"}
{"Molecule": "COc1ccc(S(=O)(=O)Nc2c(/C=C/c3ccncc3)cccc2OC)cc1", "Result": "205 to 206 °C"}
{"Molecule": "CCNC(=O)CCCC=CCC1C(O)CC(O)C1C=CC(O)CCc1ccccc1 (stereo unspecified)", "Result": "64 to 66 °C"}
{"Molecule": "Cc1cc(C#N)cn2cc(-c3cccc(-c4ccc(C#N)cc4)c3)nc12", "Result": "236 to 238 °C"}
{"Molecule": "CCc1oc2ccc(Cl)cc2c1C(=O)c1ccc(Cl)c(S(N)(=O)=O)c1", "Result": "130 to 133 °C"}
{"Molecule": "N#Cc1ccccc1SC1SCC(O)C(O)C1O (stereo unspecified)", "Result": "118 to 119 °C"}
{"Molecule": "N#CC(Br)(Br)c1ccccn1", "Result": "59 to 61 °C"}
{"Molecule": "CC(=O)OCc1nc(C(Cl)Cl)cnc1N1C(=O)c2ccccc2C1=O", "Result": "117 to 118 °C"}
{"Molecule": "O=C1Nc2ccccc2C1=C(c1ccc(Cl)cc1)c1ccc(Cl)cc1", "Result": "206 to 208 °C"}
{"Molecule": "COc1cc(N)c(Cl)cc1C(=O)NCC1CCN(CCCOCc2ccccc2)CC1", "Result": "82 to 83 °C"}
{"Molecule": "Cn1nc(O)c2ccccc2c1=O", "Result": "243 to 244 °C"}
{"Molecule": "Cc1ccc(N2C(=O)C(O)=C(C(=O)c3ccc(C(C)C)cc3)C2c2ccc(C(C)C)cc2)cn1 (stereo unspecified)", "Result": "252 to 254 °C"}
{"Molecule": "N#Cc1cnc2sccc2c1Cl", "Result": "100 to 103 °C"}
{"Molecule": "C=CCOc1ccccc1NS(C)(=O)=O", "Result": "90 °C"}
{"Molecule": "Cc1nc(N2CCC(c3ccccc3)CC2)c([N+](=O)[O-])c(=O)[nH]1", "Result": "210 to 213 °C"}
{"Molecule": "O=C1c2ccccc2C(=O)N1CCN1CCC(=C(c2ccccc2)c2ccccc2)CC1", "Result": "106 to 108 °C"}
{"Molecule": "CCOC(=O)c1cc2cccc(NS(=O)(=O)c3ccccc3OC)c2n1COC", "Result": "106 to 107 °C"}
{"Molecule": "CCCCC1OC(=O)c2cc(C#N)ccc21 (stereo unspecified)", "Result": "85 to 86 °C"}
{"Molecule": "CC(C)C(=O)OC[C@@]1(N=[N+]=[N-])O[C@@H](n2ccc(N)nc2=O)[C@@H](OC(=O)C(C)C)[C@@H]1OC(=O)C(C)C", "Result": "167 to 169 °C"}
{"Molecule": "CCCCN1CC(=O)C(C(=O)OCC)C1=O (stereo unspecified)", "Result": "121 to 123 °C"}
{"Molecule": "CC1(C)N=C(c2ccccc2F)c2cc([N+](=O)[O-])cc(Br)c2NC1=O", "Result": "164 °C"}
{"Molecule": "COc1ccc(N2Cc3cnc(Nc4ccccc4)nc3N([C@@H](C)CO)C2=O)c(F)c1", "Result": "188 to 198 °C"}
{"Molecule": "NCCc1c[nH]c2ccc(OCCCCc3ccccc3)cc12", "Result": "130 to 132 °C"}
{"Molecule": "O=C(O)CCc1ccc(CCNC(=O)c2ccccc2)cc1", "Result": "164 to 165 °C"}
{"Molecule": "COCCCN1CC[C@@H](CNC(=O)c2cc(Cl)cc3c2OCCO3)[C@H](O)C1", "Result": "110 °C"}
{"Molecule": "Cn1c(C(F)(F)F)cc(=O)n(Cc2cc(Cl)cc(Cl)c2Cl)c1=O", "Result": "128 to 130 °C"}
{"Molecule": "CCOC(=O)c1ccc(-c2csc(-c3ccc(Cl)cc3)n2)cc1", "Result": "105 to 106 °C"}
{"Molecule": "COC(=O)c1cn(-c2cc(C(=O)OC)c(N)cc2C(F)(F)F)cn1", "Result": "206 to 208 °C"}
{"Molecule": "CC(C)OC(=O)C1CCCn2c(C(=O)c3ccc(F)cc3)ccc21 (stereo unspecified)", "Result": "92 °C"}
{"Molecule": "Cc1cccc(Nc2cc(Nc3ccc(OCCCN(C)C)cc3)ncn2)c1", "Result": "204 to 207 °C"}
{"Molecule": "CC(C)(C)OC(=O)NC(Cc1ccc([N+](=O)[O-])cc1)C(=O)O (stereo unspecified)", "Result": "105 to 107 °C"}
{"Molecule": "Nc1cc(Cl)cc(Cl)c1C(=O)NCc1ccc(Cl)cc1", "Result": "174 to 178 °C"}
{"Molecule": "COC(=O)CCc1cccc(-c2ccccc2)c1", "Result": "29 to 30 °C"}
{"Molecule": "COC(=O)COCCOc1ccc([N+](=O)[O-])cc1", "Result": "96 to 97.8 °C"}
{"Molecule": "CCCC[C@H](NC(=O)[C@H](CC(C)C)NC(=O)c1ccc(F)c(C(F)(F)F)c1)C(=O)CSCc1ccco1", "Result": "112 to 114 °C"}
{"Molecule": "CCc1ccc2c(c1)CCC21CCc2cc(CC)ccc21", "Result": "236 to 239 °C"}
{"Molecule": "Cc1c(N2C[C@H]3CCOC[C@@]3(N)C2)c(F)cc2c(=O)c(C(=O)O)cn([C@@H]3C[C@@H]3F)c12", "Result": "158 to 160 °C"}
{"Molecule": "CN(C)C(=O)C(C)(C)c1ccccc1", "Result": "57 to 59 °C"}

Ref: a melting point compilation (Tetko et al.; mined from patent text by program, amines drawn as free bases though some values may be those of a salt)
